Provide the recorded inhibition at 200 µM for the entries that follow.
Tested Target: UniProtKB K0C216
Measurement Protocol: biochemical
Measurement Setup: read-out: Inhibition rate (%) NA (H5N1)
Respond with a number, then the unit of measure.

// field: inhibition at 200 µM; key: C[C@H](CC[C@H](O)[C@](C)(O)CO)[C@H]1CC[C@@]2(C)C3=CC[C@H]4C(C)(C)C(=O)CC[C@]4(C)C3=CC[C@]12C [Compound 29, Ganodermanontriol] ; value = 60.5%

// field: inhibition at 200 µM; key: C[C@H](CC(=O)C[C@@H](C)[C@H]1C[C@H](O)[C@@]2(C)C3=C(C(=O)C[C@]12C)[C@@]1(C)CCC(=O)C(C)(C)[C@@H]1C[C@@H]3O)C(=O)O [Compound 7, Ganoderic acid A] ; value = 31.4%

// field: inhibition at 200 µM; key: CC(=O)O[C@@H]1C(=O)C2=C(C(=O)C[C@H]3C(C)(C)C(=O)CC[C@]23C)[C@]2(C)C(=O)C[C@H]([C@H](C)CC(=O)CC(C)C(=O)O)[C@@]12C (some centres unmarked) [Compound 24, Ganoderic acid F] ; value = 48.6%

// field: inhibition at 200 µM; key: C/C(=C\CC[C@@H](C)[C@H]1CC[C@@]2(C)C3=CC[C@H]4C(C)(C)[C@@H](O)CC[C@]4(C)C3=CC[C@]12C)CO [Compound 26, Ganoderol B] ; value = 71.6%

// field: inhibition at 200 µM; key: CC(=O)O[C@@H]1C(=O)C2=C([C@@H](O)C[C@H]3C(C)(C)[C@@H](O)CC[C@]23C)[C@]2(C)C(=O)C[C@H]([C@H](C)CC(=O)CC(C)C(=O)O)[C@@]12C (some centres unmarked) [Compound 11, Ganoderic acid K] ; value = 57.7%
